Values were extracted from PubChem BioAssay (NCI).

system: MALME-3M melanoma; test: NCI-60 one-dose screen, 48 h; details: 10 µM unless noted
Compounds without any hit were thinned out: in the full panel of roughly 83,000, 20% have a hit. Active and inactive are the calls of the source. Rule for the calls: active = growth percent below 10; inactive = the rest.
Your response should consist of one outcome taken from active, inactive

// below: answered compounds
[
  {
    "compound": "COc1cc(NCCCN=C(N)N)c2ncccc2c1",
    "category": "inactive"
  },
  {
    "compound": "CCC1CC(O)c2c(O)c3c(c(O)c2C1O)C(=O)c1cccc(O)c1C3=O (stereo not drawn) (tested in a mixture with another compound)",
    "category": "active"
  },
  {
    "compound": "CCC1CN1CCCCN1CC1CC (stereo not drawn)",
    "category": "inactive"
  },
  {
    "compound": "Cc1ccc2c(C(C[N+](=O)[O-])c3cccs3)c(-c3ccccc3)[nH]c2c1 (stereo not drawn)",
    "category": "inactive"
  },
  {
    "compound": "COc1ccc(N(CC(=O)NCCC[Te]c2ccccc2)C(=O)CNC(=O)OC(C)(C)C)cc1",
    "category": "inactive"
  }
]

In: Returns: the outcome recorded for O=C1CCC2(O)[C@@H]3Cc4ccc(O)c5c4[C@]2(CCN3Cc2ccoc2)C1O5 (stereo partly drawn) in this assay.
Out: inactive

In: Returns: the outcome recorded for CC(C)=CCC[C@H](C(=O)O)[C@@H]1CC[C@]2(C)C3=C(CC[C@@]12C)[C@@]1(C)CC[C@H](O)C(C)(C)[C@@H]1CC3 in this assay.
Out: inactive

In: Returns: the outcome recorded for CCCCCCCCCCCCCCCCCC1OC[C@H](COC(=O)O[C@@H](C(=O)O[C@H]2C[C@@]3(O)[C@@H](OC(=O)c4ccccc4)[C@@H]4[C@]5(OC(C)=O)CO[C@@H]5C[C@H](O)[C@@]4(C)C(=O)[C@H](OC(C)=O)C(=C2C)C3(C)C)[C@@H](NC(=O)c2ccccc2)c2ccccc2)O1 (stereo partly drawn) in this assay.
Out: inactive
